Biological target: HLA-B*39:01
Assay: IEDB peptide-MHC binding, purified MHC/competitive/fluorescence; filed as Kd, often an IC50 or EC50 that approximates it; bounds were set here for any values at or beyond the usual limits of such assays
Conditions: source organism: Salmonella enterica subsp. enterica serovar Typhi
Quantity name: Kd (nM)
Please state the figure in nM; there is no need to write the unit.

For the sequence shown here, KQFCLSILL , give the reported Kd. 64.6

---

Target: HLA-B*15:01
Experiment: IEDB peptide-MHC binding, purified MHC/competitive/fluorescence; filed as Kd, often an IC50 or EC50 that approximates it; bounds were set here for any values at or beyond the usual limits of such assays
Details: source organism: Yersinia bercovieri ATCC 43970
Quantity name: pKd
Quick note: pKd means taking -log10 of the concentration in moles per liter.

Lookup: pKd / HLA-B*15:01 / WQMFMKVTV 5.89
